Overview of recorded growth for various compounds
Tested on: K-562 leukemia
Method Summary: NCI-60 one-dose screen, 48 h (100 = growth as untreated, 0 = no growth, -100 = all killed)
Condition Summary: 10 µM unless noted
Compounds without any hit were thinned out: in the full panel of roughly 83,000, 20% have a hit.

[
  {
    "Compound": "COc1cc2c(cc1OCCCCCCN1CCN(c3ncnc4ccccc34)CC1)N=CC1CCCN1C2=O (stereo not drawn)",
    "growth [%]": -15.9
  },
  {
    "Compound": "CC(=O)c1c(C)c2cnc(Nc3ccc(N4CCNCC4)cn3)nc2n(C2CCCC2)c1=O",
    "growth [%]": 6.83
  },
  {
    "Compound": "Cc1cc(Nc2nc(N[C@@H](C)c3ncc(F)cn3)ncc2Cl)n[nH]1",
    "growth [%]": 77.6
  }
]
